Measured values drawn from ChEMBL document CHEMBL2429795 for this set.

# Test system: PrEC
# assay name: Cytotoxicity against human PrEC assessed as growth inhibition after 48 hrs by trypan blue exclusion assay
# Format: cell-based
# experimental parameters: Homo sapiens, PrEC
observed property: IC50

[
  {
    "smiles str": "CC1(C)CC(=O)C(C(C2=C(O)CC(C)(C)CC2=O)c2ccco2)=C(O)C1",
    "result": "330 nM"
  },
  {
    "smiles str": "CC1(C)CC(=O)C(C(C2=C(O)CC(C)(C)CC2=O)c2ccccc2)=C(O)C1",
    "result": "1290 nM"
  },
  {
    "smiles str": "CC1(C)CC(=O)C2=C(C1)OC1=C(C(=O)CC(C)(C)C1)C2c1ccccc1",
    "result": "450 nM"
  }
]

---

# System: WI-38
# assay name: Cytotoxicity against human WI38 cells assessed as growth inhibition after 48 hrs by trypan blue exclusion assay
# Type: cell-based
# experimental parameters: Homo sapiens, WI-38, 48 h

[
  {
    "smiles str": "CC1(C)CC(=O)C2=C(C1)OC1=C(C(=O)CC(C)(C)C1)C2c1ccccc1",
    "result unit": "nM",
    "IC50": 470
  },
  {
    "smiles str": "CC1(C)CC(=O)C(C(C2=C(O)CC(C)(C)CC2=O)c2ccco2)=C(O)C1",
    "result unit": "nM",
    "IC50": 80
  },
  {
    "smiles str": "CC1(C)CC(=O)C(C(C2=C(O)CC(C)(C)CC2=O)c2ccccc2)=C(O)C1",
    "result unit": "nM",
    "IC50": 2180
  }
]
